# measured.on: human plasma kallikrein (human, UniProt P03952 20-390; P03952 391-638)
# Sequence (P03952 20-390, chain 1 of 2): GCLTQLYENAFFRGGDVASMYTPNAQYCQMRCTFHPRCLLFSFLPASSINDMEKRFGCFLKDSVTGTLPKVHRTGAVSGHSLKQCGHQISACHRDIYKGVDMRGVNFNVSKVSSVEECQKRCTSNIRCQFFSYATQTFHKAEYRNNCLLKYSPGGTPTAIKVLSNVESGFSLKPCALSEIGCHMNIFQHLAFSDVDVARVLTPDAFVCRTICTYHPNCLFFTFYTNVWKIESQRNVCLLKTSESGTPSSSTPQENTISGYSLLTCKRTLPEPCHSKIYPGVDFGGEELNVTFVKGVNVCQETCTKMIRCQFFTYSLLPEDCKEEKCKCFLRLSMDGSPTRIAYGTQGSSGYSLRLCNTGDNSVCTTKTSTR
# Sequence (P03952 391-638, chain 2 of 2): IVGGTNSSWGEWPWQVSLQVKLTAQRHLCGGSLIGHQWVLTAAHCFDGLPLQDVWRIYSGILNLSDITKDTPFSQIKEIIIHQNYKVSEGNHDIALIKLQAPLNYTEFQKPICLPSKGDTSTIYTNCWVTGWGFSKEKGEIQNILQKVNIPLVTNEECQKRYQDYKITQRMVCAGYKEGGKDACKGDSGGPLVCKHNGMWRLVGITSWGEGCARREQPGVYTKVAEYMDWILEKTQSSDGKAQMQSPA
# test.summary: cell-based or functional assay
Everything with % inhibition at 10 nM lower than 90% is False; everything else, including exactly 90%, is True.

>>> assigned_category("M209-D02 (Fab, V domains shown) VH: EVQLLESGGGLVQPGGSLRLSCAASGFTFSHYLMTWVRQAPGKGLEWVSYISPSGGHTIYADSVKGRFTISRDNSKNTLYLQMNSLRAEDTAVYYCARVARGITARSRTSYFDDWGQGTLVTVSS VL: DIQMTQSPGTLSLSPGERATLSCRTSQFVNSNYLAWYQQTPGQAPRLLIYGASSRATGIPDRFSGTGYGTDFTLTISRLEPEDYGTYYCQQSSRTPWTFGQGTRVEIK")
"False"
>>> assigned_category("M210-H01 (Fab, V domains shown) VH: EVQLLESGGGLVQPGGSLRLSCAASGFTFSHYLMTWVRQAPGKGLEWVSYISPSGGHTIYADSVKGRFTISRDNSKNTLYLQMNSLRAEDTAVYYCARVARGIAARSRNSQQDYWGQGTLVTVSS VL: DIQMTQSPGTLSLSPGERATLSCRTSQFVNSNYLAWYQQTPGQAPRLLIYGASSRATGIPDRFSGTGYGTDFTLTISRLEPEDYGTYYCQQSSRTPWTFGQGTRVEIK")
"False"
>>> assigned_category("M209-E03 (Fab, V domains shown) VH: EVQLLESGGGLVQPGGSLRLSCAASGFTFSHYLMTWVRQAPGKGLEWVSYISPSGGHTIYADSVKGRFTISRDNSKNTLYLQMNSLRAEDTAVYYCARQARGIAARSRTSYFDYWGQGTLVTVSS VL: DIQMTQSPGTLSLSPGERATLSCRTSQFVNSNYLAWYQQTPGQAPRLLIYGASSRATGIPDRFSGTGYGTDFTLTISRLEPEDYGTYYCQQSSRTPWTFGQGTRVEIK")
"False"
>>> assigned_category("M209-G01 (Fab, V domains shown) VH: EVQLLESGGGLVQPGGSLRLSCAASGFTFSHYLMTWVRQAPGKGLEWVSYISPSGGHTIYADSVKGRFTISRDNSKNTLYLQMNSLRAEDTAVYYCARVAQGISGRSRLSYVDYWGQGTLVTVSS VL: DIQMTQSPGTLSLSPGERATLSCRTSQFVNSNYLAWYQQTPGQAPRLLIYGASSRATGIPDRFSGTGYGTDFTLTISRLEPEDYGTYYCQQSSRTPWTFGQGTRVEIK")
"False"
>>> assigned_category("M209-C11 (Fab, V domains shown, Tested as Fab; printed HC runs into CH1; amber q written Q) VH: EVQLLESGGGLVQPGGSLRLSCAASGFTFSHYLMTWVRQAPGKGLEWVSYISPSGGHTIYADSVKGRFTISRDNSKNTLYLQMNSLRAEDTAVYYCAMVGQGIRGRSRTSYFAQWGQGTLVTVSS VL: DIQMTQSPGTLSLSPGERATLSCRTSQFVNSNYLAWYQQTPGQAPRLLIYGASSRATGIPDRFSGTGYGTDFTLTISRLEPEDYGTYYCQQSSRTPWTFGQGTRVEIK")
"True"
>>> assigned_category("M208-A10 (Fab, V domains shown) VH: EVQLLESGGGLVQPGGSLRLSCAASGFTFSHYLMTWVRQAPGKGLEWVSYISPSGGHTIYADSVKGRFTISRDNSKNTLYLQMNSLRAEDTAVYYCARVARGIAARSRTSQFDHWGQGTLVTVSS VL: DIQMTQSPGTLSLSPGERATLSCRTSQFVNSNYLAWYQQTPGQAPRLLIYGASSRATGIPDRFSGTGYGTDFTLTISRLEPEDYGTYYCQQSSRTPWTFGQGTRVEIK")
"False"
>>> assigned_category("M208-E10 (Fab, V domains shown, Tested as Fab; printed HC runs into CH1) VH: EVQLLESGGGLVQPGGSLRLSCAASGFTFSHYLMTWVRQAPGKGLEWVSYISPSGGHTIYADSVKGRFTISRDNSKNTLYLQMNSLRAEDTAVYYCARVAQGISARSRTSYFDYWGQGTLVTVSS VL: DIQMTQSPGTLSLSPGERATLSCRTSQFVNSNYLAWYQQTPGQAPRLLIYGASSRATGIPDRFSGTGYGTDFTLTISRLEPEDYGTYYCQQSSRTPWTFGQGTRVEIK")
"True"

Where these numbers come from: patent US9266964
